System: HCV 1b-BB7 subgenomic replicon
Test: microbe, parasite or virus in culture
Format: cell-based, HCV genotype 1b
Conditions: Hepatitis C virus, stable replicon, strain 1b BB7, 5% FBS, no human plasma; read-out: 1b BB7 5% FBS EC50
Exercise: for every item that follows, state its recorded pEC50.
Expect pEC50 as a plain number equal to -log10 of the molar concentration.

Requested read-out pEC50, target or system HCV 1b-BB7 subgenomic replicon, entry `Cc1cnc(-c2c(-c3ccc(F)cc3)oc3cc(N(CCC(C)C)S(C)(=O)=O)c(C4CC4)cc23)[nH]1`
6.95

# get_value(readout= pEC50, system= HCV 1b-BB7 subgenomic replicon) for `CS(=O)(=O)N(CCc1csc(N)n1)c1cc2oc(-c3ccc(F)cc3)c(-c3ncc[nH]3)c2cc1C1CC1`
7.21

Form: Entry = `CC(C)(C)[Si](C)(C)OCCCCN(c1cc2oc(-c3ccc(F)cc3)c(-c3ncc[nH]3)c2cc1C1CC1)S(C)(=O)=O` | System = HCV 1b-BB7 subgenomic replicon | pEC50 = ____
6.92

Can you look up pEC50 on HCV 1b-BB7 subgenomic replicon for `CC(C)=CCN(c1cc2oc(-c3ccc(F)cc3)c(-c3ncc[nH]3)c2cc1C1CC1)S(C)(=O)=O` ?
7.19
